AUC for assorted compounds
Assay: Single-dose mouse pharmacokinetics of prodrugs with or without ABT
Format: in vivo
Conditions: male, CD-1, mouse, plasma, po, 26 mg/kg, AUC of analyte after 26 mg/kg prodrug; 100 mg/kg ABT orally 2 h before; read-out: Avg AUC resulting from 26-mg/kg dose, p.o. dosing + ABT
quantity: AUC (µg·h/mL)

- Nc1ncccc1-c1cc(Cc2ccc(OCc3ccccc3)nc2)no1: 49.9
- Nc1ncccc1-c1cc(Cc2ccc(COc3ccccn3)cc2)no1 [APX001A]: 41.5
- Nc1ncccc1-c1cc(Cc2ccc(Oc3cccc(F)n3)cc2)no1: 91.3
- Nc1ncccc1-c1cc(Cc2ccc(OCc3ccccc3)cc2)no1: 41.9
